Test system: Staphylococcus aureus
Assay: Susceptibility testing (MIC) Assay 1, broth microdilution
Type: cell-based
Details: Staphylococcus aureus, in vivo strain, MRQR; read-out: Sau(e) MIC
measured-attribute: MIC

>>> print(df.to_string())
                                    compound         assayed_system  measured_attribute  measured_result
 0  C[C@@H]1CN2c3c(cc4c(N5C(=O)OC[C@@H]5CC#N)noc4c3F)CC3(C(=O)NC(=O)NC3=O)[C@H]2[C@H](C)O1 [Example 71]  Staphylococcus aureus                 MIC           6.2 µM
 1  C[C@@H]1CN2c3c(cc4c(N5C(=O)OC[C@@H]5CCO)noc4c3F)CC3(C(=O)NC(=O)NC3=O)[C@H]2[C@H](C)O1 [Example 31]  Staphylococcus aureus                 MIC            12 µM
 2  C[C@@H]1CN2c3c(cc4c(N5C(=O)OC[C@@H]5[C@@H](O)CO)noc4c3F)CC3(C(=O)NC(=O)NC3=O)[C@H]2[C@H](C)O1 [Example 72]  Staphylococcus aureus                 MIC            50 µM
 3  COC[C@@H]1[C@@H](C)OC(=O)N1c1noc2c(F)c3c(cc12)CC1(C(=O)NC(=O)NC1=O)[C@H]1[C@H](C)O[C@H](C)CN31 [Example 80]  Staphylococcus aureus                 MIC         32 µg/mL
 4  CO[C@@H](C)[C@@H]1COC(=O)N1c1noc2c(F)c3c(cc12)CC1(C(=O)NC(=O)NC1=O)[C@H]1[C@H](C)O[C@H](C)CN31 [Example 60]  Staphylococcus aureus                 MIC           1.6 µM
 5  C[C@@H]1CN2c3c(cc4c(N5C(=O)OC[C@H]5C5CCOCC5)noc4c3F)CC3(C(=O)NC(=O)NC3=O)[C@H]2[C@H](C)O1 [Example 27]  Staphylococcus aureus                 MIC           3.1 µM
 6  C[C@@H]1CN2c3c(cc4c(N5C[C@H](C=NO)OC5=O)noc4c3F)CC3(C(=O)NC(=O)NC3=O)[C@H]2[C@H](C)O1 [Example 40]  Staphylococcus aureus                 MIC           3.1 µM
 7  C[C@@H]1CN2c3c(cc4c(N5C(=O)OC[C@H]5c5ccccn5)noc4c3F)CC3(C(=O)NC(=O)NC3=O)[C@H]2[C@H](C)O1 [Example 55]  Staphylococcus aureus                 MIC           1.6 µM
 8  C[C@@H]1CN2c3c(cc4c(N5C(=O)OC[C@@H]5CCCF)noc4c3F)CC3(C(=O)NC(=O)NC3=O)[C@H]2[C@H](C)O1 [Example 30]  Staphylococcus aureus                 MIC          0.78 µM
 9  C[C@@H]1CN2c3c(cc4c(N5C(=O)OC[C@@H]5C5CCOCC5)noc4c3F)CC3(C(=O)NC(=O)NC3=O)[C@H]2[C@H](C)O1 [Example 28]  Staphylococcus aureus                 MIC            50 µM
10  CC[C@@H]1CN(c2noc3c(F)c4c(cc23)CC2(C(=O)NC(=O)NC2=O)[C@H]2[C@H](C)O[C@H](C)CN42)C(=O)O1 [Example 14]  Staphylococcus aureus                 MIC          0.78 µM
11  C[C@@H]1CN2c3c(cc4c(N5C(=O)OC[C@H]5CN=[N+]=[N-])noc4c3F)CC3(C(=O)NC(=O)NC3=O)[C@H]2[C@H](C)O1 [Example 47]  Staphylococcus aureus                 MIC          0.78 µM
